Assayed System: C4b (Homo sapiens (Human)) (UniProt P0C0L4)
Sequence (P0C0L4 757-1446 limits assumed, chain 1 of 2): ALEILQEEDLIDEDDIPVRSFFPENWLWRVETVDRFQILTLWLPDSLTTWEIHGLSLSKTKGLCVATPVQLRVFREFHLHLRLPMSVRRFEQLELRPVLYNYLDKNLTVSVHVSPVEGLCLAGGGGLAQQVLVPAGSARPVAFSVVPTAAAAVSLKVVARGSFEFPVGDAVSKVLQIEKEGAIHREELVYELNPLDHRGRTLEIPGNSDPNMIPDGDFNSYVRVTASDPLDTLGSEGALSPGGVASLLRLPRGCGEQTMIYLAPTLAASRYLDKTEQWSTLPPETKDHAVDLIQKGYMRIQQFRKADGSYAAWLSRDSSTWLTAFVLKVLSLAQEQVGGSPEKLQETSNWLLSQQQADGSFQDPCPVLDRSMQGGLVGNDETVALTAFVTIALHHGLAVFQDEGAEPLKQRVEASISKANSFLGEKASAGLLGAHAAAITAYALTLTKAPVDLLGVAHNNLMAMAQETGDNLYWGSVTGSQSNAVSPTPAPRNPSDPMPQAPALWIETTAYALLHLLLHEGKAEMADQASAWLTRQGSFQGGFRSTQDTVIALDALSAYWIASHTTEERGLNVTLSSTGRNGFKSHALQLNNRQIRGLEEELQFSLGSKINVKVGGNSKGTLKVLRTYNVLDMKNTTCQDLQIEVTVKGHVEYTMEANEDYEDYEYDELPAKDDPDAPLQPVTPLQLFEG
Sequence (P0C0L4 20-675 limits assumed, chain 2 of 2): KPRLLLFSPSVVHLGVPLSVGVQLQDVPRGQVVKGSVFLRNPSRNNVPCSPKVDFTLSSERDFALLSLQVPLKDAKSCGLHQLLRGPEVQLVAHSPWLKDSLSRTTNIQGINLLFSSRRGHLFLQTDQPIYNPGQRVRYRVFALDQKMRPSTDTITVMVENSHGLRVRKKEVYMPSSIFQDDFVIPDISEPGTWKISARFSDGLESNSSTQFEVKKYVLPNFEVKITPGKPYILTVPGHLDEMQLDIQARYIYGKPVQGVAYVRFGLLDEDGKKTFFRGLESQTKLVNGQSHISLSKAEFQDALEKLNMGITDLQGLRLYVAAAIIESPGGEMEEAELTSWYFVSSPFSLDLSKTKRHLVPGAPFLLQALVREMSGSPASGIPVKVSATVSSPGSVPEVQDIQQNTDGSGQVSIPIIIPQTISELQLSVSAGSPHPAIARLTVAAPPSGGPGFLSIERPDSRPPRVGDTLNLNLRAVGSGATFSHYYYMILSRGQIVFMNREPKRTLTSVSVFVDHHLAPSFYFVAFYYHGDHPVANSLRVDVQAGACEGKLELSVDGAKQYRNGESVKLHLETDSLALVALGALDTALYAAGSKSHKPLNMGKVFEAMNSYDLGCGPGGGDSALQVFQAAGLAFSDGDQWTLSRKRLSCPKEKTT
Entries and their C4b CFA: time (min.) for 50% cleavage of C4b α-chain
Numeric only. Scale: min

D2D3M3M4 (T192E) (protein) CEVPTRLNSASLKQPYITQNYFPVGTVVEYECRPGYRREPSLSPKLTCLQNLKWSTAVEFCKKKSCPNPGEIRNGQIDVPGGILFGATISFSCNEGYKLFGSTSSFCLISGSSVQWSDPLPECREIYCTPPPKIKNGKHTFSEVEVFEYLDAVTYSCDPAPGPDPFSLIGESTIYCGDNSVWSRAAPECKVVKCRFPVVENGKQISGFGKKFYYKATVMFECDKGFYLDGSDTIVCDSNSTWDPPVPKCLKVL = 268

Now consider the entry below.
Prompt: Return reported C4b CFA: time (min.) for 50% cleavage of C4b α-chain; argument: D2D3M3M4 (L205K) (protein) CEVPTRLNSASLKQPYITQNYFPVGTVVEYECRPGYRREPSLSPKLTCLQNLKWSTAVEFCKKKSCPNPGEIRNGQIDVPGGILFGATISFSCNTGYKLFGSTSSFCKISGSSVQWSDPLPECREIYCTPPPKIKNGKHTFSEVEVFEYLDAVTYSCDPAPGPDPFSLIGESTIYCGDNSVWSRAAPECKVVKCRFPVVENGKQISGFGKKFYYKATVMFECDKGFYLDGSDTIVCDSNSTWDPPVPKCLKVL
Response: 433
